Molecular target: DLK1-Fc fusion protein (human)
Sequence (chain, as listed by the source limits assumed, form in doubt): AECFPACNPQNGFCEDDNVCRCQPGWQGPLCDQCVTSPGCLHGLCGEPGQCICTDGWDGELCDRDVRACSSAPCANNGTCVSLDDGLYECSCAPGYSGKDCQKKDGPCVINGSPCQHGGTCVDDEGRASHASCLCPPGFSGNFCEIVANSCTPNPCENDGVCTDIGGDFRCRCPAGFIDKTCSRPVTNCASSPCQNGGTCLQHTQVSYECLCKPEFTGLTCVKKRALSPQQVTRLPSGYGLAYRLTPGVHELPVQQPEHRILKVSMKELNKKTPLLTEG
Assay: phage ELISA, DLK1 coated
Recorded endpoint: OD490 (OD)
# unit: OD | format: bare number

Input DLK1 H06 (monoclonal scFv-phage) (scFv, V domains shown) VH: QVQLVQSGGGLIQPGGSLRLSCAASGFTFSLYGMSWVRQAPGKGLEWVSSIPGSGTRTHYADSVKGRFTISRDNSKNTLFLQMNSLRAEDTAVYYCAKSTAYLFDYWGPGTLVTVSS VL: DIQMTQSPATLSLSPGERATLSCRASQSIRHYLAWYQQKPGQAPRLLIHGASSRATGIPDRFSGSGSGTDFTLTISRLEPEDFAVYYCQHYGSPLHSFGPGTKVEIK . Output OD490: 2.13
